Numbers sourced from the supplement of paper PMC10201428.

Recorded relative integration efficiency (log2) values for a group of variants are listed next.
B1: library; a variant is named by its letters at N, in order (parent)
chain: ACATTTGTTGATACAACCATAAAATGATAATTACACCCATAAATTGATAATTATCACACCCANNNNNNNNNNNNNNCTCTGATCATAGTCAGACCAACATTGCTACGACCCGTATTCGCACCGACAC

Variants of: B1
Experiment: relative integration efficiency (T-RL orientation) vs wild-type transposon end (log2 (normalized fold change)); transposon end mutated: right end (5 bp flank + 75 bp right end); higher = more efficient transposition
Conditions: with VchCAST RNA-guided transposition machinery (E. coli BL21(DE3) host, lacZ target)
Reply with the value as a number alone.

{"sequenceContent": "ACATTTGTTGATACAACCATAAAATGATAATTACACCCATAAATTGATAATTATCACACCCATAAAGTGATATTGCCTCTGATCATAGTCAGACCAACATTGCTACGACCCGTATTCGCACCGACAC", "relative integration efficiency (log2)": 0.000666}
{"sequenceContent": "ACATTTGTTGATCCAACCATAAAATGATAATTACACCCATAAATTGATAATTATCACACCCATAAATTGATATTGCCTCTGATCATAGTCAGACCAACATTGCTACGACCCGTATTCGCACCGACAC", "relative integration efficiency (log2)": -0.236}
{"sequenceContent": "ACATTTGTTTATACAACCATAAAATGATAATTACACCCATAAATTGATAATTATCACACCCAATTTAACTATAACGCTCTGATCATAGTCAGACCAACATTGCTACGACCCGTATTCGCACCGACAC", "relative integration efficiency (log2)": -1.54}
{"sequenceContent": "ACATTTGTTGATACAACCATAAAATGATAATTACACCCATAAATTGATAATTATCAAACCCAATTTAACTATAACGCTCTGATCATAGTCAGACCAACATTGCTACGACCCGTATTCGCACCGACAC", "relative integration efficiency (log2)": -0.68}
{"sequenceContent": "ACATTTGTTGATACAACCATAAAATGATAATTACACCCATAAATTGATAATTATCACACCCATTAATTGATATTGCCTCTGATCATAGTCAGACCAACATTGCTACGACCCGTATTCGCACCGACAC", "relative integration efficiency (log2)": -0.072}
{"sequenceContent": "ACATTTGTTGATACAACCATAAAATGATAATTACACCCATAAATTGATAATTATCACACCCATAAATTGTAATTGCCTCTGATCATAGTCAGACCAACATTGCTACGACCCGTATTCGCACCGACAC", "relative integration efficiency (log2)": -0.121}
{"sequenceContent": "ACATTTGTTGATACAACCATAAAATGATAATTACACCCATAAATTGATAATTATCACACCCATAAATTGATATTGCCTTTGATCATAGTCAGACCAACATTGCTACGACCCGTATTCGCACCGACAC", "relative integration efficiency (log2)": 0.00455}
{"sequenceContent": "ACATTTGTTGATACAACCATAAAATGTTAATTACACCCATAAATTGATAATTATCACACCCAATTTAACTATAACGCTCTGATCATAGTCAGACCAACATTGCTACGACCCGTATTCGCACCGACAC", "relative integration efficiency (log2)": -1.93}

Q: Reported relative integration efficiency (log2), variant ACATTTGTTGATACAACCATAAAATTATAATTACACCCATAAATTGATAATTATCACACCCATAAATTGATATTGCCTCTGATCATAGTCAGACCAACATTGCTACGACCCGTATTCGCACCGACAC : ____
A: -0.472

Q: Please give the measured relative integration efficiency (log2) for this variant: ACATTTGTTGATACAACCATAAAATGATAATTACACCCATAAATTGATAGTTATCACACCCAATTTAACTATAACGCTCTGATCATAGTCAGACCAACATTGCTACGACCCGTATTCGCACCGACAC
A: -1.62

Q: What value of relative integration efficiency (log2) has been reported for the following variant? ACATTTGTTGATACAACCATAAAATGAAAATTACACCCATAAATTGATAATTATCACACCCATAAATTGATATTGCCTCTGATCATAGTCAGACCAACATTGCTACGACCCGTATTCGCACCGACAC
A: -0.215

Q: Which value of relative integration efficiency (log2) has been reported for ACATTTGTTGATACAACCATAAAATGATAATTACACCCATAAATTGATAATTATTACACCCAATTTAACTATAACGCTCTGATCATAGTCAGACCAACATTGCTACGACCCGTATTCGCACCGACAC in the records?
A: -1.15

Q: So what does the record say about relative integration efficiency (log2) for ACATTTGTTGATACAACCATAAAAAGATAATTACACCCATAAATTGATAATTATCACACCCATAAATTGATATTGCCTCTGATCATAGTCAGACCAACATTGCTACGACCCGTATTCGCACCGACAC ?
A: -0.524

Q: Quick check: relative integration efficiency (log2) of ACATTTGTTGATACAACCATAAAATGATAATTACACCCATAAATTGATAATTATCACACCCATAAATTGATAGTGCCTCTGATCATAGTCAGACCAACATTGCTACGACCCGTATTCGCACCGACAC ?
A: -0.0439

Q: What value of relative integration efficiency (log2) has been recorded for this entry: ACATTTGTTGATACATCCATAAAATGATAATTACACCCATAAATTGATAATTATCACACCCATAAATTGATATTGCCTCTGATCATAGTCAGACCAACATTGCTACGACCCGTATTCGCACCGACAC
A: -0.582

Q: Could you tell me which relative integration efficiency (log2) is on file for ACATTTGTTGATACAACCATAAAATGATAATTACACCCATAAATTGATAATTATCACACCCTATTATTGATATTGCCTCTGATCATAGTCAGACCAACATTGCTACGACCCGTATTCGCACCGACAC ?
A: -0.325

Q: Any idea what relative integration efficiency (log2) was measured for ACATTTGTTGATACAACCATAAAATGATAATTACACCCATAAATTGATAATTATCGCACCCATAAATTGATATTGCCTCTGATCATAGTCAGACCAACATTGCTACGACCCGTATTCGCACCGACAC ?
A: -0.248

Q: // query relative integration efficiency (log2) value for entry ACATTTGTTGATACAACCATAAAATGATAATTACACCCATAAATTGTTAATTATCACACCCATAAATTGATATTGCCTCTGATCATAGTCAGACCAACATTGCTACGACCCGTATTCGCACCGACAC
A: -0.574

Q: # query: relative integration efficiency (log2) of entry ACATTTGTTGATACAACCATAAACTGATAATTACACCCATAAATTGATAATTATCACACCCAATTTAACTATAACGCTCTGATCATAGTCAGACCAACATTGCTACGACCCGTATTCGCACCGACAC
A: -0.878

Q: GET /values?readout=relative integration efficiency (log2)&item= ACATTTGTTGATACAACCATAAAATGATAATTACACCCATAAATTGATAATTATCAAACCCATAAATTGATATTGCCTCTGATCATAGTCAGACCAACATTGCTACGACCCGTATTCGCACCGACAC
A: -0.104

Q: If you can, please state the reported relative integration efficiency (log2) value of ACATTTGTCGATACAACCATAAAATGATAATTACACCCATAAATTGATAATTATCACACCCATAAATTGATATTGCCTCTGATCATAGTCAGACCAACATTGCTACGACCCGTATTCGCACCGACAC .
A: 0.234

Q: Give its relative integration efficiency (log2) value. Item: ACATTTGTTGATACAACCATAAAATGATAATTACACCCATTAATTGATAATTATCACACCCATAAATTGATATTGCCTCTGATCATAGTCAGACCAACATTGCTACGACCCGTATTCGCACCGACAC
A: -0.0667

Q: Any idea what relative integration efficiency (log2) was measured for ACATTTGTTGATACAACCATAAAATGATTATTACACCCATAAATTGATAATTATCACACCCATAAATTGATATTGCCTCTGATCATAGTCAGACCAACATTGCTACGACCCGTATTCGCACCGACAC ?
A: -0.372

Q: State the recorded relative integration efficiency (log2) for this entry: ACATTTGTTGATACAACCATAAAATGATAATTACACCCATCAATTGATAATTATCACACCCAATTTAACTATAACGCTCTGATCATAGTCAGACCAACATTGCTACGACCCGTATTCGCACCGACAC
A: -1.53

Q: Could you share which relative integration efficiency (log2) value was measured for ACATTTGTTGATACAACCATAAAAGGATAATTACACCCATAAATTGATAATTATCACACCCATAAATTGATATTGCCTCTGATCATAGTCAGACCAACATTGCTACGACCCGTATTCGCACCGACAC ?
A: -0.25

Q: Any idea what its relative integration efficiency (log2) is? The variant is ACATTTGTTGATACCACCATAAAATGATAATTACACCCATAAATTGATAATTATCACACCCATAAATTGATATTGCCTCTGATCATAGTCAGACCAACATTGCTACGACCCGTATTCGCACCGACAC
A: 0.297

Q: Using the record for ACATTTGTTGATACAACCATAAAATGATAATTACACCCATAAATTGATAATTATCACACCCATAAATTGATAGGGCCTCTGATCATAGTCAGACCAACATTGCTACGACCCGTATTCGCACCGACAC , report its relative integration efficiency (log2).
A: 0.0268

Q: Entry under review: ACATTTGTTGATACAACCATAAAATGATAATTACACCCATAAATTGATAATTATCACAGCCATAAATTGATATTGCCTCTGATCATAGTCAGACCAACATTGCTACGACCCGTATTCGCACCGACAC . Reported relative integration efficiency (log2)?
A: -0.141

Q: What does the record list as relative integration efficiency (log2) for ACATTTGTTGATACAACCATAAAATGATAATTACACCCATAAATTGATAAGTATCACACCCATAAATTGATATTGCCTCTGATCATAGTCAGACCAACATTGCTACGACCCGTATTCGCACCGACAC ?
A: -0.507

Q: Given ACATTTGTTGATACAACCATAAAATGATAATTACACCCATAAATCGATAATTATCACACCCATAAATTGATATTGCCTCTGATCATAGTCAGACCAACATTGCTACGACCCGTATTCGCACCGACAC , state its recorded relative integration efficiency (log2).
A: -0.0459
